Values were extracted from the domain aggregation screens of Martell et al. (2025).

assay: soluble fraction after stress (log2 fold change); higher = more stays soluble; pooled small domains, quantitative proteomics; details: stress: 75 degC;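 note: 20 min heating vs room temperature control held 20 min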
Is soluble fraction (log2) at least -0.09? Then 1. If not, -1.

Some entries whose results are on file:
### Prompt // inclusive: soluble fraction (log2) at least -0.09? input: HMTRVDALDQLAAIRFSSHIFAEDQDLRMVVVDGQRIGEGDIVRDEIRLEQITETGVIFEYQGERFPIDV
### Response -1

### Prompt // inclusive: soluble fraction (log2) at least -0.09? input: HMQILPAFLPENPELRARLANHSLEELTEILKQYKTLHNSTDVDTVKRAIRAIEIEEYYAVHPV
### Response -1

### Prompt // inclusive: soluble fraction (log2) at least -0.09? input: HMHHIDTAWFRGKMREHRLTQEAVGQAIGLERSMVSKIIKGTVSFNARKASAWAQLLRVSESEILERVGI
### Response -1

### Prompt // inclusive: soluble fraction (log2) at least -0.09? input: HMINNINKLPETQFIKLFANIFENSQFIAVALYKKKGDGFSDFKDLINKIMDIFENTTKEKKLKILNA
### Response -1

### Prompt // inclusive: soluble fraction (log2) at least -0.09? input: HMKYKKYKLLKDLPTFKAGQLAYISKTGNLIAGTPENQKTTETGLIIMIYHETTLKKFPNILTEWFEEIE
### Response -1

### Prompt // inclusive: soluble fraction (log2) at least -0.09? input: HMIEEIPYSQFMSMLEEGKIDKAEIYQDSIIFSTKPDEQGKAGYYSIAYMKDNVLADRLYDAGVEFTPII
### Response 1

### Prompt // inclusive: soluble fraction (log2) at least -0.09? input: HMKVTRWEDTGMKPAEAQEWQHYDFKPQEAMNWRDAGFVPLVARTWSDKGFDASEAQAWRDSVRNS
### Response -1

### Prompt // inclusive: soluble fraction (log2) at least -0.09? input: HMSVRPMVEILRVVGSPSPVWVTWARNRAAWLYETGIRPQQRLRMADGTEVLIRLVGEFAHILVVGG
### Response 1

New cases:
### Prompt // inclusive: soluble fraction (log2) at least -0.09? input: HMNPMLEPAGEIRLSDGVLLRWQSERLPGDDTVRGPGSLYELGLYRVKVRVSAPQQGVRESSVELAGWRQV
### Response 1

### Prompt // inclusive: soluble fraction (log2) at least -0.09? input: HMEDEEILNEIRHTEQYVYYFGNYIMEHHVSRGLSKEKVIASLARELQIEIADIREDFDGMIEQIKTNILN
### Response -1
